Just for reference, paper doi:10.1101/757047v1 is where these values come from.

What pIC50 was measured for each of the following?
Target: UniProt O14976
Sequence (O14976 2-1311): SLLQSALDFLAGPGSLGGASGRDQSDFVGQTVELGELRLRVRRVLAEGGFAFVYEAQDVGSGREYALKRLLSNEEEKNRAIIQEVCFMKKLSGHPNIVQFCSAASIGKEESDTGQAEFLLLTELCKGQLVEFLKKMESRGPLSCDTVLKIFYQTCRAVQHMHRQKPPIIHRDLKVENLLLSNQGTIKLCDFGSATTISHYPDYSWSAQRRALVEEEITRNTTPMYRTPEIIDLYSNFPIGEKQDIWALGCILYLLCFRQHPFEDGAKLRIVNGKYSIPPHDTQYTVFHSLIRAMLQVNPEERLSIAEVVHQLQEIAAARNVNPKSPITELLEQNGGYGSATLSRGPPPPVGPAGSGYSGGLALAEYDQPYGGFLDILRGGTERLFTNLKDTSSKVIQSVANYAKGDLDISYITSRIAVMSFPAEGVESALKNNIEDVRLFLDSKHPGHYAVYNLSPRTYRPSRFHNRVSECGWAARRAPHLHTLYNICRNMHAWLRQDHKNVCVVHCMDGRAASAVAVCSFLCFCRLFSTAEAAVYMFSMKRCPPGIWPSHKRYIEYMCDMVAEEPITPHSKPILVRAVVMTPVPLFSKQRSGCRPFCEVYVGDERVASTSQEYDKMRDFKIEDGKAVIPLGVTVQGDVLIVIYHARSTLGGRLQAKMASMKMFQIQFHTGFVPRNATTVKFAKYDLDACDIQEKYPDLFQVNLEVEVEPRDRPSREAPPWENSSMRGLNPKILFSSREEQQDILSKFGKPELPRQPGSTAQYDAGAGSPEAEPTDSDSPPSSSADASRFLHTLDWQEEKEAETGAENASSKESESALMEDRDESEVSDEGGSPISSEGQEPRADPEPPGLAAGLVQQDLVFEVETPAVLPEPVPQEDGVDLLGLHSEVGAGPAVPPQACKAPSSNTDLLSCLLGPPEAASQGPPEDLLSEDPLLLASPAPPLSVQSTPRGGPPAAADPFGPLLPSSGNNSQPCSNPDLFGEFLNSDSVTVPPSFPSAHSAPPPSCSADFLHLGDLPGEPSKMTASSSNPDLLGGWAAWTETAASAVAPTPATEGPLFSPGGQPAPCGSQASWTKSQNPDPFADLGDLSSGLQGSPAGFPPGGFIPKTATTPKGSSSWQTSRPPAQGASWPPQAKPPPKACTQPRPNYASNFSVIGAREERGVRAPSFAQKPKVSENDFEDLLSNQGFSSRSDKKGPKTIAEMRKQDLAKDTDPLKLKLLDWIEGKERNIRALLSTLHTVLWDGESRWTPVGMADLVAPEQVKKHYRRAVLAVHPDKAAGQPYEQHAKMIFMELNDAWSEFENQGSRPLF
Assay info: cell-based
Set-up: species or system HEK293T
pIC50: −log10 of the molar value.

Need pIC50, item C#Cc1cccc(Nc2ncnc3cc(C(F)(F)F)ccc23)c1 [compound 66, 66]
< 5.30

Need pIC50, item C#Cc1cccc(Nc2ncnc3cc(Cl)ccc23)c1 [compound 63, 63]
< 5.30

Need pIC50, item C#Cc1cccc(Nc2ncnc3cc(I)ccc23)c1 [compound 65, 65]
< 5.30

Need pIC50, item C#Cc1cccc(Nc2ncnc3cc4c(cc23)OCO4)c1 [compound 73, 73]
5.77

Need pIC50, item C#Cc1cccc(Nc2ncnc3ccc(Br)cc23)c1 [compound 59, 59]
< 5.30

Need pIC50, item C#Cc1cccc(Nc2ncnc3cc(C#N)ccc23)c1 [compound 67, 67]
< 5.30

Need pIC50, item C#Cc1cccc(Nc2ncnc3ccc(C(F)(F)F)cc23)c1 [compound 61, 61]
< 5.30

Need pIC50, item C#Cc1cccc(Nc2ncnc3cc(OC)ccc23)c1 [compound 72, 72]
5.92

Need pIC50, item C#Cc1cccc(Nc2ncnc3ccc(F)cc23)c1 [compound 56, 56]
5.70

Need pIC50, item C#Cc1cccc(Nc2ncnc3ccc(I)cc23)c1 [compound 60, 60]
< 5.30

Need pIC50, item C#Cc1cccc(Nc2ncnc3ccccc23)c1 [compound 54, 54]
5.35

---

What Ki was measured for each of the following?
Target: STK10 (Homo sapiens, UniProt O94804)
Sequence (O94804 36-294 limits assumed): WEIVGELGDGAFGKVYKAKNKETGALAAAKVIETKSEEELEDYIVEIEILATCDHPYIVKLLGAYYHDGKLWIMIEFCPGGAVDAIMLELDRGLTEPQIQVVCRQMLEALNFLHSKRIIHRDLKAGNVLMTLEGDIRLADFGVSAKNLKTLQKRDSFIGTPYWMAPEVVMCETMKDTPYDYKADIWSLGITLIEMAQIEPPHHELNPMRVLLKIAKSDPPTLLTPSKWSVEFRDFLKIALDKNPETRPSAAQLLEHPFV
Assay info: biochemical

Need Ki, item `C#Cc1cccc(Nc2c(C#N)cnc3cc(Br)ccc23)c1`
130 nM

Need Ki, item `C#Cc1cccc(Nc2c(C#N)cnc3cc(Cl)ccc23)c1`
210 nM

Need Ki, item `C#Cc1cccc(Nc2c(C#N)cnc3ccc(Cl)cc23)c1`
720 nM

Need Ki, item `C#Cc1cccc(Nc2c(C#N)cnc3ccc(S(C)(=O)=O)cc23)c1`
42000 nM

Need Ki, item `C#Cc1cccc(Nc2c(C#N)cnc3ccc(I)cc23)c1`
1000 nM

Need Ki, item `C#Cc1cccc(Nc2c(C#N)cnc3ccccc23)c1`
340 nM

Need Ki, item `C#Cc1cccc(Nc2c(C#N)cnc3ccc(F)cc23)c1`
580 nM

Need Ki, item `C#Cc1cccc(Nc2c(C#N)cnc3ccc(Br)cc23)c1`
1100 nM

---

Target: SLK (Homo sapiens, UniProt Q9H2G2)
Sequence (Q9H2G2 34-292): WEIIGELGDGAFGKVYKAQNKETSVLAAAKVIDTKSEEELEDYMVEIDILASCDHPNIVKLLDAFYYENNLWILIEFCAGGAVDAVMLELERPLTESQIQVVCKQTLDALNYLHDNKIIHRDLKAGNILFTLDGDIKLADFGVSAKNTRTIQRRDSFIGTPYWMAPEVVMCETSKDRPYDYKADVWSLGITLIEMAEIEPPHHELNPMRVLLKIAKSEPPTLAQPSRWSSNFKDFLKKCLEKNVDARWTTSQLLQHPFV
Assay info: biochemical
What pKi was measured for each of the following?
Value format note: pKi is -log10 of concentration (mol/L); just state the number.

Need pKi, item `C#Cc1cccc(Nc2ncnc3cc(C(F)(F)F)ccc23)c1`
5.92

Need pKi, item `C#Cc1cccc(Nc2ncnc3ccccc23)c1`
4.64

Need pKi, item `C#Cc1cccc(Nc2ncnc3cc(F)c(F)cc23)c1`
5.42

Need pKi, item `C#Cc1cccc(Nc2ncnc3ccc(C#N)cc23)c1`
5.10

Need pKi, item `C#Cc1cccc(Nc2ncnc3cc(Br)ccc23)c1`
6.59

Need pKi, item `C#Cc1cccc(Nc2ncnc3ccc(F)cc23)c1`
5.07

Need pKi, item `C#Cc1cccc(Nc2ncnc3cc(OC)ccc23)c1`
6.17

Need pKi, item `C#Cc1cccc(Nc2ncnc3cc(Cl)ccc23)c1`
6.44

Need pKi, item `C#Cc1cccc(Nc2ncnc3cc(I)ccc23)c1`
6.74

Need pKi, item `C#Cc1cccc(Nc2ncnc3ccc(Br)cc23)c1`
5.47

Need pKi, item `C#Cc1cccc(Nc2ncnc3cc(C#N)ccc23)c1`
6.59

Need pKi, item `C#Cc1cccc(Nc2ncnc3ccc(OC)cc23)c1`
5.55

Need pKi, item `C#Cc1cccc(Nc2ncnc3cc4c(cc23)OCO4)c1`
5.57

Need pKi, item `C#Cc1cccc(Nc2ncnc3ccc(C(F)(F)F)cc23)c1`
5.49

Need pKi, item `C#Cc1cccc(Nc2ncnc3ccc(Cl)cc23)c1`
5.41

Need pKi, item `C#Cc1cccc(Nc2ncnc3ccc(S(C)(=O)=O)cc23)c1`
5.89

Need pKi, item `C#Cc1cccc(Nc2ncnc3cc(F)ccc23)c1`
5.92

Need pKi, item `C#Cc1cccc(Nc2ncnc3ccc(C)cc23)c1`
5.37

Need pKi, item `C#Cc1cccc(Nc2ncnc3cc4c(cc23)OCCO4)c1`
5.44

Need pKi, item `C#Cc1cccc(Nc2ncnc3ccc(I)cc23)c1`
5.37

---

What pKi was measured for each of the following?
Target: STK10 (Homo sapiens, UniProt O94804)
Assay info: biochemical
Value format note: pKi is -log10 of concentration (mol/L); just state the number.

Need pKi, item `C#Cc1cccc(Nc2ncnc3cc(I)ccc23)c1`
6.82

Need pKi, item `C#Cc1cccc(Nc2ncnc3cc4c(cc23)OCO4)c1`
5.82

Need pKi, item `C#Cc1cccc(Nc2ncnc3ccc(Br)cc23)c1`
5.60

Need pKi, item `C#Cc1cccc(Nc2ncnc3ccc(S(C)(=O)=O)cc23)c1`
5.89

Need pKi, item `C#Cc1cccc(Nc2ncnc3ccc(C(F)(F)F)cc23)c1`
5.47

Need pKi, item `C#Cc1cccc(Nc2ncnc3ccc(I)cc23)c1`
5.43

Need pKi, item `C#Cc1cccc(Nc2ncnc3ccc(OC)cc23)c1`
5.66

Need pKi, item `C#Cc1cccc(Nc2ncnc3cc(Br)ccc23)c1`
6.54

Need pKi, item `C#Cc1cccc(Nc2ncnc3ccc(C)cc23)c1`
5.59

Need pKi, item `C#Cc1cccc(Nc2ncnc3cc(F)c(F)cc23)c1`
5.54

---

Target: GAK (Homo sapiens)
Assay info: biochemical
What Ki was measured for each of the following?
Kindly answer with a numeric value in nM, unit omitted.

Need Ki, item `C#Cc1ccc(F)c(Nc2ncnc3cc(OC)c(OC)cc23)c1`
5.8

Need Ki, item `C#Cc1cc(Nc2ncnc3cc(OC)c(OC)cc23)ccc1Cl`
3.4

Need Ki, item `C#Cc1ccc(F)c(Nc2ncnc3cc(I)ccc23)c1`
110

Need Ki, item `C#Cc1cc(Nc2ncnc3cc(C#N)ccc23)ccc1F`
550

Need Ki, item `C#Cc1cccc(Nc2ncnc3cc(C#N)ccc23)c1F`
330

Need Ki, item `C#Cc1cc(Nc2ncnc3cc(I)ccc23)ccc1Cl`
92

Need Ki, item `C#Cc1cc(Nc2ncnc3ccc(I)cc23)ccc1Cl`
140

Need Ki, item `C#Cc1cc(Nc2ncnc3cc(OC)c(OC)cc23)ccc1F`
2.4

Need Ki, item `C#Cc1cc(Nc2ncnc3ccc(I)cc23)ccc1F`
68
